The following molecules are shown together with reported Binding affinity values.
# testedTarget: Peptidoglycan D,D-transpeptidase MrdA (Escherichia coli K-12)
# assayMethodText: Affinity for penicillin binding protein 2 of Escherichia coli UB1005 (DC0) was evaluated.
# Parameters: unit not given here

# molecule, testedTarget, Binding affinity
rows = [
    ("Nc1nc(/C(=N/OCC(=O)O)C(=O)N[C@@H]2C(=O)N3C(C(=O)O)=C(CN4CCN(c5cc6c(cc5F)c(=O)c(C(=O)O)cn6C5CC5)CC4)CS[C@H]23)cs1", "Peptidoglycan D,D-transpeptidase MrdA (Escherichia coli K-12)", "> 100"),
    ("O=C(O)C1=C(CN2CCN(c3cc4c(cc3F)c(=O)c(C(=O)O)cn4C3CC3)CC2)CS[C@@H]2[C@H](NC(=O)C(C(=O)O)c3ccccc3)C(=O)N12 (stereo partly drawn)", "Peptidoglycan D,D-transpeptidase MrdA (Escherichia coli K-12)", "> 100"),
    ("CC(C)(O/N=C(\\C(=O)N[C@@H]1C(=O)N2C(C(=O)[O-])=C(C[n+]3ccccc3)CS[C@H]12)c1csc(N)n1)C(=O)O", "Peptidoglycan D,D-transpeptidase MrdA (Escherichia coli K-12)", "> 100"),
]

----------
# System: Escherichia coli
# assayMethodText: Minimum inhibitory concentration against E. coli UB1005 (DC0)
quantityName: MIC (µg/mL)

# molecule, quantityName, unit, reportedValue
measured = [
    ("O=C(O)C1=C(CN2CCN(c3cc4c(cc3F)c(=O)c(C(=O)O)cn4C3CC3)CC2)CS[C@@H]2[C@H](NC(=O)[C@H](O)c3ccccc3)C(=O)N12", "MIC", "µg/mL", 4),
    ("CO/N=C(\\C(=O)N[C@@H]1C(=O)N2C(C(=O)O)=C(CN3CCN(c4cc5c(cc4F)c(=O)c(C(=O)O)cn5C4CC4)CC3)CS[C@H]12)c1csc(N)n1", "MIC", "µg/mL", 1),
    ("CC(C)(O/N=C(\\C(=O)N[C@@H]1C(=O)N2C(C(=O)O)=C(CN3CCN(c4cc5c(cc4F)c(=O)c(C(=O)O)cn5C4CC4)CC3)CS[C@H]12)c1csc(N)n1)C(=O)O", "MIC", "µg/mL", 4),
    ("CC(C)(O/N=C(\\C(=O)N[C@@H]1C(=O)N2C(C(=O)[O-])=C(C[n+]3ccccc3)CS[C@H]12)c1csc(N)n1)C(=O)O", "MIC", "µg/mL", 0.125),
    ("CCN1CCN(C(=O)N[C@@H](C(=O)N[C@@H]2C(=O)N3C(C(=O)O)=C(CSc4nnnn4C)CS[C@H]23)c2ccc(O)cc2)C(=O)C1=O", "MIC", "µg/mL", 0.031),
    ("O=C(O)C1=C(CN2CCN(c3cc4c(cc3F)c(=O)c(C(=O)O)cn4C3CC3)CC2)CS[C@@H]2[C@H](NC(=O)C(C(=O)O)c3ccccc3)C(=O)N12 (stereo partly drawn)", "MIC", "µg/mL", 4),
    ("Nc1nc(/C(=N/OCC(=O)O)C(=O)N[C@@H]2C(=O)N3C(C(=O)O)=C(CN4CCN(c5cc6c(cc5F)c(=O)c(C(=O)O)cn6C5CC5)CC4)CS[C@H]23)cs1", "MIC", "µg/mL", 2),
    ("CO/N=C(\\C(=O)N[C@@H]1C(=O)N2C(C(=O)O)=C(COC(C)=O)CS[C@H]12)c1csc(N)n1", "MIC", "µg/mL", 0.031),
]
